experimental.protocol: Ratio of GI50 for antiproliferative activity against human hTERT-BJ cells incubated for 48 hrs by SRB assay to GI50 for antiproliferative activity against human HeLa cells incubated for 48 hrs by SRB assay
Format: toxicity, cell-based
condition: hTERT-BJ cells versus HeLa cells, read-out: RatioGI50
quantity.name: selectivity ratio at 48 h

Consider the following illustrative entries.
CC1=C(C)C(=O)O[C@@H]([C@]2(C)OC(O)[C@]34CC[C@H]5[C@@H]([C@H](O)C=C6C=CCC(=O)[C@@]65C)[C@@H]3CC[C@H]24)C1 (stereo partly drawn) : 2 to 10
CC1=C(C)C(=O)O[C@@H]([C@]2(C)OC(O)[C@]34CC[C@H]5[C@@H]([C@H](O)C=C6CC=CC(=O)[C@@]65C)[C@@H]3CC[C@H]24)C1 (stereo partly drawn) : 2 to 10

Please examine the following record next.
Entry under review: C[C@]12C(=O)CC=CC1=C[C@H]1O[C@]3([C@@H]4C[C@]5(C)C(=O)O[C@H]4C[C@@]5(C)O)CC[C@@]4(O3)[C@H]1[C@@H]2CC[C@]4(C)O . Reported selectivity ratio at 48 h?
2 to 10

---

experimental.protocol: Ratio of GI50 for antiproliferative activity against human hTERT-BJ cells incubated for 48 hrs by SRB assay to GI50 for antiproliferative activity against human HBL100 cells incubated for 48 hrs by SRB assay
Items are presented alongside their recorded RatioGI50.

Recorded RatioGI50, per entry:
CCO[C@@H]1O[C@@](C)([C@H]2CC(C)=C(C)C(=O)O2)[C@H]2CC[C@H]3[C@@H]4[C@@H](O)C=C5[C@@H](O)C=CC(=O)[C@]5(C)[C@H]4CC[C@]123 : 2 - 10
CC1=C(C)C(=O)O[C@@H]([C@]2(C)OC(O)[C@]34CC[C@H]5[C@@H]([C@@H](O)C=C6[C@@H](O)C=CC(=O)[C@@]65C)[C@@H]3CC[C@H]24)C1 (mixture of isomers) : 2 - 10

So what does the record say about RatioGI50 for CC1=C(C)C(=O)O[C@@H]([C@](C)(O)[C@H]2CC[C@H]3[C@@H]4[C@@H](O)C=C5[C@@H](O)C=CC(=O)[C@]5(C)[C@H]4CC[C@]23C)C1 ?
2 - 10

Entry CO[C@H]1O[C@@](C)([C@H]2CC(C)=C(C)C(=O)O2)[C@H]2CC[C@H]3[C@@H]4[C@@H](O)C=C5[C@@H](O)C=CC(=O)[C@]5(C)[C@H]4CC[C@]123 has what RatioGI50?
2 - 10

RatioGI50 lookup needed for C[C@]12C(=O)C=CCC1=C[C@H]1O[C@]3([C@@H]4C[C@]5(C)C(=O)O[C@H]4C[C@@]5(C)O)CC[C@@]4(O3)[C@H]1[C@@H]2CC[C@]4(C)O , thanks.
2 - 10

---

System: T47D
experimental.protocol: Antiproliferative activity against human T47D cells incubated for 48 hrs by SRB assay
Assay type: functional
Listed molecules paired with reported GI50

Request the reported GI50 associated with C[C@]12C(=O)CC=CC1=C[C@H]1O[C@]3([C@@H]4C[C@]5(C)C(=O)O[C@H]4C[C@@]5(C)O)CC[C@@]4(O3)[C@H]1[C@@H]2CC[C@]4(C)O
> 10 µM

Which GI50 value belongs to CC1=C(C)C(=O)O[C@@H]([C@]2(C)OC(O)[C@]34CC[C@H]5[C@@H]([C@@H](O)C=C6[C@@H](O)C=CC(=O)[C@@]65C)[C@@H]3CC[C@H]24)C1 (mixture of isomers) ?
> 10 µM

So what does the record say about GI50 for C[C@]12C(=O)C=CCC1=C[C@H]1O[C@]3([C@@H]4C[C@]5(C)C(=O)O[C@H]4C[C@@]5(C)O)CC[C@@]4(O3)[C@H]1[C@@H]2CC[C@]4(C)O ?
> 10 µM

Return reported GI50; argument: CO[C@H]1O[C@@](C)([C@H]2CC(C)=C(C)C(=O)O2)[C@H]2CC[C@H]3[C@@H]4[C@@H](O)C=C5[C@@H](O)C=CC(=O)[C@]5(C)[C@H]4CC[C@]123
3.9 µM

Which measured GI50 value corresponds to CC1=C(C)C(=O)O[C@@H]([C@]2(C)OC(O)[C@]34CC[C@H]5[C@@H]([C@H](O)C=C6C=CCC(=O)[C@@]65C)[C@@H]3CC[C@H]24)C1 (stereo not given in full) ?
> 10 µM

Origin of the recorded values: ChEMBL document CHEMBL4316659
